- test-target: mouse Tas2r105 (Mus musculus, UniProt Q9JKT4)
- Construct: expressed in transfected cells; host or cells: HEK293T-Gα16gust44
- Sequence (Q9JKT4 whole entry): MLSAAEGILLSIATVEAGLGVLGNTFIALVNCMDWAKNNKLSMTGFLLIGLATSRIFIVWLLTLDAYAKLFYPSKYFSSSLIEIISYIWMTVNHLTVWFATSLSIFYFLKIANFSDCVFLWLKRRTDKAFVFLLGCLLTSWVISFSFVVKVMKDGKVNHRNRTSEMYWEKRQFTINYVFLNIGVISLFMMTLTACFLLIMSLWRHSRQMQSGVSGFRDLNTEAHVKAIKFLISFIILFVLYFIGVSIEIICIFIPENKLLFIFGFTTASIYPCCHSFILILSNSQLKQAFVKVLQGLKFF
- assay: Calcium imaging assay (FLIPR), HEK293T-Gα16gust44 cells transfected with mouse Tas2r105
- Type: cell-based
- experimental-conditions: Time 92.781 s
measured-endpoint: RLU
Remember to quote the unit after the number.

Value of RLU reported for the compound C[C@H](CCC(=O)O)[C@H]1CC[C@H]2[C@@H]3CC[C@@H]4C[C@H](O)CC[C@]4(C)[C@H]3C[C@H](O)[C@]12C is 97.4301 RLU

Value of RLU reported for the compound C[C@H](CCC(=O)O)[C@H]1CC[C@H]2[C@@H]3CC[C@@H]4C[C@H](O)CC[C@]4(C)[C@H]3CC[C@]12C is 209.022 RLU

Value of RLU reported for the compound C[C@H](CCC(=O)NCC(=O)O)[C@H]1CC[C@H]2[C@@H]3[C@H](O)C[C@@H]4C[C@H](O)CC[C@]4(C)[C@H]3C[C@H](O)[C@]12C is 541.782 RLU

Value of RLU reported for the compound C[C@H](CCC(=O)O)[C@H]1CC[C@H]2[C@@H]3[C@H](O)C[C@@H]4C[C@H](O)CC[C@]4(C)[C@H]3C[C@H](O)[C@]12C is 557.955 RLU

Data provenance is paper PMC10247784.
